Target: Gamma-secretase
Assay: Inhibition of gamma secretase in APP-transfected CHO cells
Type: cell-based, Homo sapiens
pIC50: −log10 of the molar value.
Quick reference for pIC50 among some compounds

{"structure": "CC(C)CNC(=O)C1(C(=O)N[C@@H]2C(=O)N(C)c3ccccc3-c3ccccc32)CCCC1", "pIC50": 7.58}
{"structure": "CC(C)CNC(=O)C1(C(=O)N[C@H]2N=C(c3ccc(C(F)(F)F)cc3)c3ccccc3N(C)C2=O)CCC1", "pIC50": 7.55}
{"structure": "CN1C(=O)[C@@H](NC(=O)C2(C(=O)NCCC3CCCC3)CCC2)c2ccccc2-c2ccccc21", "pIC50": 7.68}
{"structure": "CC(C)CNC(=O)C1(C(=O)N[C@H]2N=C(c3ccccc3)c3ccccc3N(C)C2=O)CCC1", "pIC50": 7.68}
{"structure": "CC(C)CCNC(=O)C1(C(=O)N[C@H]2N=C(c3ccc(C(F)(F)F)cc3)c3ccccc3N(C)C2=O)CCC1", "pIC50": 7.85}
{"structure": "CC(C)CNC(=O)C1(C(=O)N[C@H]2N=C(c3ccc(C(F)(F)F)cc3)c3ccccc3N(C)C2=O)CCCC1", "pIC50": 7.90}

Origin of the recorded values: ChEMBL document CHEMBL1148887
